A collection of molecules and their measured MIC
- System: Enterococcus faecalis
- Run description: Antibacterial activity against Vancomycin resistant Enterococcus faecalis 1010798
- Type: functional

Answered cases to consult:
| Smiles structure | MIC |
| --- | --- |
| Cc1c(O)cc(O)c2c1[C@H](C)[C@@H](C)OC21CCCCC1 | 32 µg/mL |
| CO[C@]12CCCC[C@@H]1[C@H]1O[C@H](C)[C@@H](C)c3c(C)c(O)cc(c31)O2 | > 64 µg/mL |
| C/C=C/[C@@H]1C=C[C@@H]2C[C@H](C)CC[C@H]2[C@]1(C)/C(O)=C1/C(=O)[C@H](CO)N(C)C1=O | 2 µg/mL |

Let's switch to this molecule now.
Q: # return recorded MIC for input Cc1c(O)cc2c3c1[C@H](C)[C@@H](C)O[C@@H]3[C@H]1CCCC[C@]1(O)O2
Result: > 64 µg/mL
